Tested Target: Cathepsin D (Homo sapiens, UniProt P07339)
Sequence (P07339 65-162 limits assumed): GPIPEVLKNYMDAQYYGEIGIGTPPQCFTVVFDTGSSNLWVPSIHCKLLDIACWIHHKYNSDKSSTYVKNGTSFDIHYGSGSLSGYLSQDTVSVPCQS
Sequence (P07339 169-412 limits assumed): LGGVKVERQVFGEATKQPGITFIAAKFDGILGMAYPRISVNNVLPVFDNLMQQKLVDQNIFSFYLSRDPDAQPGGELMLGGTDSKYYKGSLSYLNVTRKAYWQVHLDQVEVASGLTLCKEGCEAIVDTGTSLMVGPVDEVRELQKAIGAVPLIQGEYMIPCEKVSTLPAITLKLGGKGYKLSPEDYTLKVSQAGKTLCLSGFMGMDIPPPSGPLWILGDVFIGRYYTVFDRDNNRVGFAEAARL
Experimental Details: Inhibition of human Cathepsin D using fluorogenic substrate by FRET-based assay
pIC50: −log10 of the molar value.
Measurement Kind: pIC50

Q. Using the record for O=c1c2c(O)c(O)c(O)cc2nc(-c2ccccc2)n1-c1ccccc1 , report its pIC50.
A. < 5.00

====

Experimental Details: Kinetic solubility in phosphate buffer solution at pH 7.4
Format: physicochemical
Study Conditions: read-out: Kinetic_solubility
Entries and their solubility kinetic
Express the result in µM but write the number alone.

{"columns": ["Compound", "solubility kinetic [µM]"],
 "data": [
  ["CC(C)Cc1nc2cc(O)c(O)c(O)c2c(=O)n1-c1ccccc1", 156],
  ["O=c1cc(-c2ccccc2)oc2cc(O)c(O)c(O)c12", 112]
]}

Q. Using the record for O=c1c2c(O)c(O)c(O)cc2nc(-c2ccccc2)n1-c1ccccc1 , report its solubility kinetic.
A. 179

====

Tested Target: Cathepsin B (Homo sapiens, UniProt P07858)
Measurement Kind: IC50

Q. Using the record for O=c1c2c(O)c(O)c(O)cc2nc(-c2ccccc2)n1-c1ccccc1 , report its IC50.
A. > 10 µM

====

Tested Target: Caspase-2 (Homo sapiens)
Sequence (P42575 whole entry): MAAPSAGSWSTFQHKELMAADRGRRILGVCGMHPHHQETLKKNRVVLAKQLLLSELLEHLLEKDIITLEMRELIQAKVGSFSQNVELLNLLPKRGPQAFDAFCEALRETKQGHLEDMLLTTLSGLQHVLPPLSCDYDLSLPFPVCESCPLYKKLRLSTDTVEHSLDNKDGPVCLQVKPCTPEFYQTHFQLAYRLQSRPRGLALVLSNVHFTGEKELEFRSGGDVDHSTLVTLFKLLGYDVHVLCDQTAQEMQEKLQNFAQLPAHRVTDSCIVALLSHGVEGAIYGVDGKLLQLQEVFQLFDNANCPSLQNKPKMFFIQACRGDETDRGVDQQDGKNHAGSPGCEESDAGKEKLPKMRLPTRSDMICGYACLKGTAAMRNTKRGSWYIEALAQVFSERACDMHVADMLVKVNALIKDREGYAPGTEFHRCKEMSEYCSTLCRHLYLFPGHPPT
pIC50: −log10 of the molar value.
Measurement Kind: pIC50

Q. Using the record for O=c1c2c(O)c(O)c(O)cc2nc(-c2ccccc2)n1-c1ccccc1 , report its pIC50.
A. < 5.00

====

Entries and their Fu
Experimental Details: Plasma protein binding in human assessed as unbound fraction
Type: ADME, cell-free
Express the result in % but write the number alone.

Solved cases (2 shown):
{"columns": ["Compound", "Numeric Result"],
 "data": [
  ["CC(C)Cc1nc2cc(O)c(O)c(O)c2c(=O)n1-c1ccccc1", 2.61],
  ["O=c1c2c(O)c(O)c(O)cc2nc(-c2ccccc2)n1-c1ccccc1", 0.7]
]}

Q. Using the record for O=c1cc(-c2ccccc2)oc2cc(O)c(O)c(O)c12 , report its Fu.
A. 0.93

Q. Using the record for Cc1cc(-n2c(CC(C)C)nc3cc(O)c(O)c(O)c3c2=O)ccc1F , report its Fu.
A. 3.17

====

Tested Target: Procathepsin L (Homo sapiens)
Sequence (P07711 whole entry): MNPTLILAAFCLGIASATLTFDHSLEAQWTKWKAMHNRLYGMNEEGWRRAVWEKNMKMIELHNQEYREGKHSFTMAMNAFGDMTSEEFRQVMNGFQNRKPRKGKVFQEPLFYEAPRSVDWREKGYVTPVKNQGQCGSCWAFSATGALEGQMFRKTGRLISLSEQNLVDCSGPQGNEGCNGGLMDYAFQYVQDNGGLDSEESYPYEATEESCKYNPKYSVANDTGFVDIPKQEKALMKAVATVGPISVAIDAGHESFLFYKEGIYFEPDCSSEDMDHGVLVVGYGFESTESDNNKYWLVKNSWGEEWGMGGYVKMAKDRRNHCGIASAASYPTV
Measurement Kind: IC50

Q. So what IC50 did O=c1c2c(O)c(O)c(O)cc2nc(-c2ccccc2)n1-c1ccccc1 get with Procathepsin L (Homo sapiens)?
A. > 10 µM
